For each entry below, report its MIC value.
tested on: Pseudomonas aeruginosa; test: Antibacterial activity against wild type Pseudomonas aeruginosa PAO1; type: functional
The response must be a number in µg/mL with no trailing unit.

Task: Given Cl.Cl.Cl.Cl.Cl.NC[C@H]1O[C@H](O[C@H]2[C@H](OCCCCCCCCCCCCN3CCN(c4cc5c(cc4F)c(=O)c(C(=O)O)cn5C4CC4)CC3)[C@@H](O)[C@H](N)C[C@@H]2N)[C@H](N)C[C@@H]1O , state its recorded MIC.
Output: 32

Task: How about NC[C@H]1O[C@H](O[C@H]2[C@H](O)[C@@H](O[C@H]3O[C@H](CO)[C@@H](O)[C@H](N)[C@H]3O)[C@H](N)C[C@@H]2N)[C@H](N)C[C@@H]1O ?
Output: 1

Task: How about N=C(N)NC[C@H]1O[C@H](O[C@H]2[C@H](OCCCCCCCCCCCCN3CCN(c4cc5c(cc4F)c(=O)c(C(=O)O)cn5C4CC4)CC3)[C@@H](O[C@H]3O[C@H](CO)[C@@H](O)[C@H](NC(=N)N)[C@H]3O)[C@H](NC(=N)N)C[C@@H]2NC(=N)N)[C@H](NC(=N)N)C[C@@H]1O.O=C(O)C(F)(F)F.O=C(O)C(F)(F)F.O=C(O)C(F)(F)F.O=C(O)C(F)(F)F.O=C(O)C(F)(F)F.O=C(O)C(F)(F)F ?
Output: 32

###

test system: Pseudomonas aeruginosa; experiment: Potentiation of aztreonam-induced antibacterial activity against carbapenem-resistant Pseudomonas aeruginosa 264-104354 clinical isolate assessed as aztreonam MIC at 8 uM by checkerboard assay (reference value: 32 ug/ml); format: functional
endpoint: MIC (µg/mL)
The response must be a number in µg/mL with no trailing unit.

Task: Given NC[C@H]1O[C@H](O[C@H]2[C@H](OCCCCCCCCN3CCCNCCNCCCNCC3)[C@@H](O)[C@H](N)C[C@@H]2N)[C@H](N)C[C@@H]1O.O=C(O)C(F)(F)F.O=C(O)C(F)(F)F.O=C(O)C(F)(F)F.O=C(O)C(F)(F)F.O=C(O)C(F)(F)F.O=C(O)C(F)(F)F.O=C(O)C(F)(F)F.O=C(O)C(F)(F)F , state its recorded MIC.
Output: 16

Task: How about Cl.Cl.Cl.Cl.Cl.Cl.NC[C@H]1O[C@H](O[C@H]2[C@H](OCCCCCCCCCCCCN3CCN(c4cc5c(cc4F)c(=O)c(C(=O)O)cn5C4CC4)CC3)[C@@H](O[C@H]3O[C@H](CO)[C@@H](O)[C@H](N)[C@H]3O)[C@H](N)C[C@@H]2N)[C@H](N)C[C@@H]1O ?
Output: 8

Task: How about Cl.Cl.Cl.Cl.Cl.NC[C@H]1O[C@H](O[C@H]2[C@H](OCCCCCCCCCCCCN3CCN(c4cc5c(cc4F)c(=O)c(C(=O)O)cn5C4CC4)CC3)[C@@H](O)[C@H](N)C[C@@H]2N)[C@H](N)C[C@@H]1O ?
Output: 16

Task: How about NC[C@H]1O[C@H](O[C@H]2[C@H](OCCCCc3cn(CCCCO[C@@H]4[C@@H](O)[C@H](N)C[C@H](N)[C@H]4O[C@H]4O[C@H](CN)[C@@H](O)C[C@H]4N)nn3)[C@@H](O)[C@H](N)C[C@@H]2N)[C@H](N)C[C@@H]1O.O=C(O)C(F)(F)F.O=C(O)C(F)(F)F.O=C(O)C(F)(F)F.O=C(O)C(F)(F)F.O=C(O)C(F)(F)F.O=C(O)C(F)(F)F.O=C(O)C(F)(F)F.O=C(O)C(F)(F)F ?
Output: 8

Task: How about N=C(N)NC[C@H]1O[C@H](O[C@H]2[C@H](OCCCCCCCCCCCCN3CCN(c4cc5c(cc4F)c(=O)c(C(=O)O)cn5C4CC4)CC3)[C@@H](O[C@H]3O[C@H](CO)[C@@H](O)[C@H](NC(=N)N)[C@H]3O)[C@H](NC(=N)N)C[C@@H]2NC(=N)N)[C@H](NC(=N)N)C[C@@H]1O.O=C(O)C(F)(F)F.O=C(O)C(F)(F)F.O=C(O)C(F)(F)F.O=C(O)C(F)(F)F.O=C(O)C(F)(F)F.O=C(O)C(F)(F)F ?
Output: 32

###

tested on: Pseudomonas aeruginosa; experiment: Potentiation of ceftazidime-induced antibacterial activity against carbapenem-resistant Pseudomonas aeruginosa 108590 clinical isolate assessed as fold reduction in ceftazidime MIC at 8 uM in presence of beta-lactamase inhibitor, avi-bactam; format: functional
endpoint: fold change (FC)
Output: the number by itself.

Task: Form field: fold change (FC) recorded for NC[C@H]1O[C@H](O[C@H]2[C@H](OCCCCc3cn(CCCCO[C@@H]4[C@@H](O)[C@H](N)C[C@H](N)[C@H]4O[C@H]4O[C@H](CN)[C@@H](O)C[C@H]4N)nn3)[C@@H](O)[C@H](N)C[C@@H]2N)[C@H](N)C[C@@H]1O.O=C(O)C(F)(F)F.O=C(O)C(F)(F)F.O=C(O)C(F)(F)F.O=C(O)C(F)(F)F.O=C(O)C(F)(F)F.O=C(O)C(F)(F)F.O=C(O)C(F)(F)F.O=C(O)C(F)(F)F with Pseudomonas aeruginosa (enter value)
Output: 16

Task: How about NC[C@H]1O[C@H](O[C@H]2[C@H](OCCCCCCCCN3CCCNCCNCCCNCC3)[C@@H](O[C@H]3O[C@H](CO)[C@@H](O)[C@H](N)[C@H]3O)[C@H](N)C[C@@H]2N)[C@H](N)C[C@@H]1O.O=C(O)C(F)(F)F.O=C(O)C(F)(F)F.O=C(O)C(F)(F)F.O=C(O)C(F)(F)F.O=C(O)C(F)(F)F.O=C(O)C(F)(F)F.O=C(O)C(F)(F)F.O=C(O)C(F)(F)F.O=C(O)C(F)(F)F ?
Output: 16

Task: How about NC[C@H]1O[C@H](O[C@H]2[C@H](OCCCCCCCCN3CCCNCCNCCCNCC3)[C@@H](O)[C@H](N)C[C@@H]2N)[C@H](N)C[C@@H]1O.O=C(O)C(F)(F)F.O=C(O)C(F)(F)F.O=C(O)C(F)(F)F.O=C(O)C(F)(F)F.O=C(O)C(F)(F)F.O=C(O)C(F)(F)F.O=C(O)C(F)(F)F.O=C(O)C(F)(F)F ?
Output: 16

###

system: Pseudomonas aeruginosa; test: Potentiation of imipenem-induced antibacterial activity against carbapenem-resistant Pseudomonas aeruginosa 264-104354 clinical isolate assessed as imipenem MIC at 8 uM by checkerboard assay (reference value: 16 ug/ml); type: functional
endpoint: MIC (µg/mL)
The response must be a number in µg/mL with no trailing unit.

Task: Given N=C(N)NC[C@H]1O[C@H](O[C@H]2[C@H](OCCCCCCCCCCCCN3CCN(c4cc5c(cc4F)c(=O)c(C(=O)O)cn5C4CC4)CC3)[C@@H](O[C@H]3O[C@H](CO)[C@@H](O)[C@H](NC(=N)N)[C@H]3O)[C@H](NC(=N)N)C[C@@H]2NC(=N)N)[C@H](NC(=N)N)C[C@@H]1O.O=C(O)C(F)(F)F.O=C(O)C(F)(F)F.O=C(O)C(F)(F)F.O=C(O)C(F)(F)F.O=C(O)C(F)(F)F.O=C(O)C(F)(F)F , state its recorded MIC.
Output: 16

Task: How about NC[C@H]1O[C@H](O[C@H]2[C@H](OCCCCc3cn(CCCCO[C@@H]4[C@@H](O)[C@H](N)C[C@H](N)[C@H]4O[C@H]4O[C@H](CN)[C@@H](O)C[C@H]4N)nn3)[C@@H](O)[C@H](N)C[C@@H]2N)[C@H](N)C[C@@H]1O.O=C(O)C(F)(F)F.O=C(O)C(F)(F)F.O=C(O)C(F)(F)F.O=C(O)C(F)(F)F.O=C(O)C(F)(F)F.O=C(O)C(F)(F)F.O=C(O)C(F)(F)F.O=C(O)C(F)(F)F ?
Output: 8

Task: How about Cl.Cl.Cl.Cl.Cl.NC[C@H]1O[C@H](O[C@H]2[C@H](OCCCCCCCCCCCCN3CCN(c4cc5c(cc4F)c(=O)c(C(=O)O)cn5C4CC4)CC3)[C@@H](O)[C@H](N)C[C@@H]2N)[C@H](N)C[C@@H]1O ?
Output: 8

Task: How about Cl.Cl.Cl.Cl.Cl.Cl.NC[C@H]1O[C@H](O[C@H]2[C@H](OCCCCCCCCCCCCN3CCN(c4cc5c(cc4F)c(=O)c(C(=O)O)cn5C4CC4)CC3)[C@@H](O[C@H]3O[C@H](CO)[C@@H](O)[C@H](N)[C@H]3O)[C@H](N)C[C@@H]2N)[C@H](N)C[C@@H]1O ?
Output: 4

Task: How about NC[C@H]1O[C@H](O[C@H]2[C@H](OCCCCCCCCN3CCCNCCNCCCNCC3)[C@@H](O)[C@H](N)C[C@@H]2N)[C@H](N)C[C@@H]1O.O=C(O)C(F)(F)F.O=C(O)C(F)(F)F.O=C(O)C(F)(F)F.O=C(O)C(F)(F)F.O=C(O)C(F)(F)F.O=C(O)C(F)(F)F.O=C(O)C(F)(F)F.O=C(O)C(F)(F)F ?
Output: 16

Task: How about NC[C@H]1O[C@H](O[C@H]2[C@H](OCCCCCCCCN3CCCNCCNCCCNCC3)[C@@H](O[C@H]3O[C@H](CO)[C@@H](O)[C@H](N)[C@H]3O)[C@H](N)C[C@@H]2N)[C@H](N)C[C@@H]1O.O=C(O)C(F)(F)F.O=C(O)C(F)(F)F.O=C(O)C(F)(F)F.O=C(O)C(F)(F)F.O=C(O)C(F)(F)F.O=C(O)C(F)(F)F.O=C(O)C(F)(F)F.O=C(O)C(F)(F)F.O=C(O)C(F)(F)F ?
Output: 8
